target: T1, ROR1 antigen (UniProt Q01973 30-403, limits assumed); assay: BLI (Octet RED96e), antibody on sensor, ROR1 antigen from 100 nM in 2-fold dilutions
T1 construct: construct not described
T1 sequence (Q01973 30-403 limits assumed): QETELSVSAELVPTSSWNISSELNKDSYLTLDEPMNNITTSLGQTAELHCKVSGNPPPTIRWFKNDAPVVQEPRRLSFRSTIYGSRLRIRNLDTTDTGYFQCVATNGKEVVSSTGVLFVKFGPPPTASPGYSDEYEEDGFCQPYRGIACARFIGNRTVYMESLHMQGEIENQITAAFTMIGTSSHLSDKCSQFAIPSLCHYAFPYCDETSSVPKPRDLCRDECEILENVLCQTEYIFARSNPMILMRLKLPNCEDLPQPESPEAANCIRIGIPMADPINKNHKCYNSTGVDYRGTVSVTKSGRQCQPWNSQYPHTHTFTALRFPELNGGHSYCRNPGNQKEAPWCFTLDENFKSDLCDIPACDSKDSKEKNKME

{"columns": ["Binder", "koff (s⁻¹)"],
 "data": [
  ["humanized antibody hu17-H2L1 (antibody, human IgG1, kappa, L234A L235A, V domains shown) VH: EVTLKESGPTLVKPTQTLTLTCSFSGFSLSTSGMGVAWIRQPPGKALEWLAHIWWDDDKRYNPALKSRLTITKDTSKNQVVLTITNVDPVDTATYYCARPQFITTVVAFYWYFDVWGQGTTVTVSS VL: DILLTQSPSSLSVSVGDRVTITCRASENIYSNLAWYQQKPGKAPKLLVYAATNLADGVPSRFSGSGSGTQYTLTISSLQPEDFATYYCQHFWGTPWTFGGGTKLEIKR", 0.0185],
  ["humanized antibody hu17-H3L1 (antibody, human IgG1, kappa, L234A L235A, V domains shown) VH: QVTLKESGPTLVKPTQTLTLTCSFSGFSLSTSGMGVAWIRQPPGKALEWLAHIWWDDDKRYNPSLKSRLTITKDTSKNQVVLTMTNMDPVDTATYYCARPQFITTVVAFYWYFDVWGQGTTVTVSS VL: DILLTQSPSSLSVSVGDRVTITCRASENIYSNLAWYQQKPGKAPKLLVYAATNLADGVPSRFSGSGSGTQYTLTISSLQPEDFATYYCQHFWGTPWTFGGGTKLEIKR", 0.0279],
  ["humanized antibody hu17-H4L1 (antibody, human IgG1, kappa, L234A L235A, V domains shown) VH: QVTLKESGPTLVKPTQTLTLTCTFSGFSLSTSGMGVAWIRQPPGKALEWLAHIWWDDDKRYGPSLKSRLTITKDTSKNQVVLTMTNMDPVDTATYYCARPQFITTVVAFYWYFDVWGQGTTVTVSS VL: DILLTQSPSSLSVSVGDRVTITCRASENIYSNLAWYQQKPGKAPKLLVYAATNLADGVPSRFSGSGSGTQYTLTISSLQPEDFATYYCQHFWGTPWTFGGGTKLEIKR", 0.0147],
  ["murine antibody 17-F12-G8-A6 (antibody, V domains shown) VH: EVTLKESGPGILQPSQTLSLTCSFSGFSLSTSGMGVAWIRQPSGKGLEWLAHIWWDDDKRYNPALKSRLTISKDTSSNQVFLKIASVDTADTATYYCARPQFITTVVAFYWYFDVWGAGTTVTVSS VL: DILLTQSPASLSVSMGETVTITCRASENIYSNLAWYQQKQGKSPQLLVYAATNLADGVPSRFSGSGSGTQYSLKINSLQSEDFGSYYCQHFWGTPWTFGGGTKLEIK", 0.0105]
]}
